Taken from paper PMC12655172.

System: α-L-fucosidase (bovine kidney)
Construct: purchased Sigma-Aldrich; host or cells: bovine kidney
Test: Glycosidase inhibition (Table 2 panel)
Assay type: biochemical
Settings: at 1000 μM
Source text: The enzymes α-D-glucosidase (yeast), β-D-glucosidases (almond, bovine liver), α-D-galactosidase (coffee beans), β-D-galactosidase (bovine liver), α-D-mannosidase (Jack bean), β-D-mannosidase (snail), α-L-rhamnosidase (P. decumbens), α-L-fucosidase (bovine kidney), trehalase (porcine kidney), β-D-glucuronidases (E. coli, bovine liver), amyloglucosidase (A. niger), para-nitrophenyl glycosides, and various disaccharides were purchased from Sigma-Aldrich Co (St. Louis, MO, USA). […]
measured-quantity: inhibition % α-L-Fucosidase Bovine Kidney

OB(O)c1cccc(CN2C[C@@H](O)[C@H]3OC(O)[C@H](O)[C@H]32)c1 (stereo partly drawn) ... ^aNI ^b(3.8%)
CC1(C)O[C@H]2O[C@H]3[C@@H]([C@H]2O1)N(Cc1cccc(B2OC(C)(C)C(C)(C)O2)c1)C[C@H]3O ... ^aNI ^b(3.8%)

---

test system: α-L-rhamnosidase (P. decumbens); experiment: Glycosidase inhibition (Table 2 panel); format: biochemical; conditions: at 1000 μM
measured-quantity: inhibition % α-L-Rhamnosidase P. decumbens

OB(O)c1cccc(CN2C[C@@H](O)[C@H]3OC(O)[C@H](O)[C@H]32)c1 (some centres unmarked) ... ^aNI ^b(3.2%)
OB(O)c1ccccc1CN1C[C@@H](O)[C@H]2OC(O)[C@H](O)[C@H]21 (some centres unmarked) ... ^aNI ^b(3.2%)

---

What inhibition at 25 µM was measured for each of the following?
system: HT29 (colorectal carcinoma); test: Cancer screening, MTT growth inhibition; type: cell-based; conditions: Homo sapiens, HT-29, 25 µM of drug, 72 h, read-out: DOSE SCREEN percentage (%) cell growth inhibition HT29 Colon
Express your answer in %, writing the number without its unit.

I am curious: what inhibition at 25 µM value has been reported for N[C@@H](Cc1ccc(B(O)O)cc1)C(=O)O [BPA, 4-borono-L-phenylalanine, reference compound] ?
14

// query inhibition at 25 µM value for entry `CC1(C)O[C@H]2O[C@H]3[C@@H]([C@H]2O1)N(Cc1ccccc1B(O)O)C[C@H]3O`
4

---

Give inhibition at 100 µM for every item shown.
molecular target: α-D-glucosidase (yeast) (Saccharomyces cerevisiae); construct: purchased Sigma-Aldrich; test: Glycosidase inhibition (Table 2 panel); type: biochemical; settings: read-out: inhibition % α-D-Glucosidase Yeast
Sequence (P53341 whole entry): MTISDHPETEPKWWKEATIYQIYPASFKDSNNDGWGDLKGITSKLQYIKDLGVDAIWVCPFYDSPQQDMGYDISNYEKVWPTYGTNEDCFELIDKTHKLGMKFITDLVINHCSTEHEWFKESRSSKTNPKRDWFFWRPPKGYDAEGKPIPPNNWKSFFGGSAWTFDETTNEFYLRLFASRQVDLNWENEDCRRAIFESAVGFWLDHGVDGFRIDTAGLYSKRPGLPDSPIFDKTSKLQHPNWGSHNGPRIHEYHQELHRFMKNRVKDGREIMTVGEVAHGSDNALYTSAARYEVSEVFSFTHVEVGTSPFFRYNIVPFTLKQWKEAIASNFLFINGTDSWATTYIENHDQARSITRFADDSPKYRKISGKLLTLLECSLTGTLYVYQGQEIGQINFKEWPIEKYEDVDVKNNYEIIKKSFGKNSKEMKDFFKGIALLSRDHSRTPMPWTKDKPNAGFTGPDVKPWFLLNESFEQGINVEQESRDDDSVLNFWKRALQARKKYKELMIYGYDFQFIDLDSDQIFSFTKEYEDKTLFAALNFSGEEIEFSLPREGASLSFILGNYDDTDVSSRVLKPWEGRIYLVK
Give the number; % is assumed, so skip it.

Report inhibition at 100 µM for `CC1(C)O[C@H]2O[C@H]3[C@@H]([C@H]2O1)N(Cc1cccc(B2OC(C)(C)C(C)(C)O2)c1)C[C@H]3O` please.
8.8

Sample `CC1(C)O[C@H]2O[C@H]3[C@@H]([C@H]2O1)N(Cc1cccc(O)c1)C[C@H]3O` — what was its inhibition at 100 µM?
0

Requested field: inhibition at 100 µM. Item: OB(O)c1ccccc1CN1C[C@@H](O)[C@H]2OC(O)[C@H](O)[C@H]21 (stereo partly drawn)
2.9

Please look up its inhibition at 100 µM: `OC[C@H](O)[C@@H]1[C@H](O)[C@H](O)CN1Cc1ccccc1B(O)O`
0

Need inhibition at 100 µM of `CC1(C)O[C@H]2O[C@H]3[C@@H]([C@H]2O1)N(Cc1ccccc1B1OC(C)(C)C(C)(C)O1)C[C@H]3O` , thanks.
1

Which inhibition at 100 µM value is on record for `CC1(C)O[C@H]2O[C@H]3[C@@H]([C@H]2O1)N(Cc1cccc(B(O)O)c1)C[C@H]3O` ?
7.8

Please look up its inhibition at 100 µM: OB(O)c1cccc(CN2C[C@@H](O)[C@H]3OC(O)[C@H](O)[C@H]32)c1 (stereo partly drawn)
1.4

Would you mind telling me what inhibition at 100 µM value was observed for `CC1(C)O[C@H]2O[C@H]3[C@@H]([C@H]2O1)N(Cc1ccccc1B(O)O)C[C@H]3O` ?
0

Which inhibition at 100 µM value belongs to `OC[C@H](O)[C@@H]1[C@H](O)[C@H](O)CN1Cc1cccc(B(O)O)c1` ?
8.1

---

Hi there, I'd appreciate the recorded inhibition at 25 µM for every entry that follows.
test system: HT29 (colorectal carcinoma); test: Cancer screening, MTT growth inhibition; format: cell-based; settings: Homo sapiens, HT-29, 25 µM of drug, 72 h, read-out: DOSE SCREEN percentage (%) cell growth inhibition HT29 Colon
Note: unit % is implicit; provide only the numeric part.

Give the measured inhibition at 25 µM of CC1(C)O[C@H]2O[C@H]3[C@@H]([C@H]2O1)N(Cc1ccccc1B1OC(C)(C)C(C)(C)O1)C[C@H]3O [ortho 2] .
7

For CC1(C)O[C@H]2O[C@H]3[C@@H]([C@H]2O1)N(Cc1cccc(B2OC(C)(C)C(C)(C)O2)c1)C[C@H]3O [meta 2] , what is its reported inhibition at 25 µM?
1

Using the record for CC1(C)O[C@H]2O[C@H]3[C@@H]([C@H]2O1)N(Cc1cccc(O)c1)C[C@H]3O [meta 6] , report its inhibition at 25 µM.
4

---

tested on: α-D-mannosidase (Jack bean); construct: purchased Sigma-Aldrich; host or cells: Jack bean; test: Glycosidase inhibition (Table 2 panel); assay type: biochemical; conditions: at 100 μM
measured-quantity: inhibition % α-D-Mannosidase Jack Bean

N[C@@H](Cc1ccc(B(O)O)cc1)C(=O)O [^10B-BPA, reference compound] ... ^cNI ^d(0%)
OC[C@H](O)[C@@H]1[C@H](O)[C@H](O)CN1Cc1cccc(B(O)O)c1 [meta 4] ... ^cNI ^d(0%)
OB(O)c1cccc(CN2C[C@@H](O)[C@H]3OC(O)[C@H](O)[C@H]32)c1 (some centres unmarked) [meta 3] ... ^cNI ^d(0%)

---

Test system: trehalase (porcine kidney)
Construct: purchased Sigma-Aldrich; host or cells: porcine kidney
Assay: Glycosidase inhibition (Table 2 panel)
Type: biochemical
Conditions: at 100 μM
Text: The enzymes α-D-glucosidase (yeast), β-D-glucosidases (almond, bovine liver), α-D-galactosidase (coffee beans), β-D-galactosidase (bovine liver), α-D-mannosidase (Jack bean), β-D-mannosidase (snail), α-L-rhamnosidase (P. decumbens), α-L-fucosidase (bovine kidney), trehalase (porcine kidney), β-D-glucuronidases (E. coli, bovine liver), amyloglucosidase (A. niger), para-nitrophenyl glycosides, and various disaccharides were purchased from Sigma-Aldrich Co (St. Louis, MO, USA). […]
measured-quantity: inhibition % Trehalase Porcine Kidney

Solved cases (5 shown):
CC1(C)O[C@H]2O[C@H]3[C@@H]([C@H]2O1)N(Cc1cccc(B(O)O)c1)C[C@H]3O [meta 5] ... ^cNI ^d(0%)
N[C@@H](Cc1ccc(B(O)O)cc1)C(=O)O [BPA, 4-borono-L-phenylalanine, reference compound] ... ^cNI ^d(0%)
CC1(C)O[C@H]2O[C@H]3[C@@H]([C@H]2O1)N(Cc1cccc(B2OC(C)(C)C(C)(C)O2)c1)C[C@H]3O [meta 2] ... ^cNI ^d(0%)
N[C@@H](Cc1ccc(B(O)O)cc1)C(=O)O [^10B-BPA, reference compound] ... ^cNI ^d(0%)
OC[C@H](O)[C@@H]1[C@H](O)[C@H](O)CN1Cc1ccccc1B(O)O [ortho 4] ... ^cNI ^d(0%)

Consider the molecule OB(O)c1ccccc1CN1C[C@@H](O)[C@H]2OC(O)[C@H](O)[C@H]21 (some centres unmarked) [ortho 3] and give its measured inhibition % Trehalase Porcine Kidney.
^cNI ^d(0%)

Recorded inhibition % Trehalase Porcine Kidney for CC1(C)O[C@H]2O[C@H]3[C@@H]([C@H]2O1)N(Cc1cccc(O)c1)C[C@H]3O [meta 6] , please?
^cNI ^d(0%)

---

Provide the reported Percentage inhibition β-D-Glucuronidase Bovine Liver of each item.
test system: β-D-glucuronidase (bovine liver); experiment: Glycosidase inhibition (Table 3 panel); format: biochemical; details: 1 mg/mL aqueous solution; run in water
Respond with the bare value in %.

Query (molecule): CC1(C)O[C@H]2O[C@H]3[C@@H]([C@H]2O1)N(Cc1cccc(O)c1)C[C@H]3O [meta 6] ; field requested: Percentage inhibition β-D-Glucuronidase Bovine Liver
3.6

Look up Percentage inhibition β-D-Glucuronidase Bovine Liver for this molecule: OB(O)c1cccc(CN2C[C@@H](O)[C@H]3OC(O)[C@H](O)[C@H]32)c1 (some centres unmarked) [meta 3]
13.3

I would be grateful if you could share the reported Percentage inhibition β-D-Glucuronidase Bovine Liver for OC[C@H](O)[C@@H]1[C@H](O)[C@H](O)CN1Cc1ccccc1B(O)O [ortho 4] .
2.2

Quick one: Percentage inhibition β-D-Glucuronidase Bovine Liver for CC1(C)O[C@H]2O[C@H]3[C@@H]([C@H]2O1)N(Cc1ccccc1B(O)O)C[C@H]3O [ortho 5] ?
1.4

Could you tell me which Percentage inhibition β-D-Glucuronidase Bovine Liver is on file for OB(O)c1ccccc1CN1C[C@@H](O)[C@H]2OC(O)[C@H](O)[C@H]21 (some centres unmarked) [ortho 3] ?
1.3

Consider the molecule shown here: N[C@@H](Cc1ccc(B(O)O)cc1)C(=O)O [BPA, 4-borono-L-phenylalanine, reference compound] What is its recorded Percentage inhibition β-D-Glucuronidase Bovine Liver?
−0.7

What does the data say about its Percentage inhibition β-D-Glucuronidase Bovine Liver? Entry: CC1(C)O[C@H]2O[C@H]3[C@@H]([C@H]2O1)N(Cc1ccccc1B1OC(C)(C)C(C)(C)O1)C[C@H]3O [ortho 2]
−1.8

May I ask what Percentage inhibition β-D-Glucuronidase Bovine Liver has been recorded for CC1(C)O[C@H]2O[C@H]3[C@@H]([C@H]2O1)N(Cc1cccc(B(O)O)c1)C[C@H]3O [meta 5] ?
−0.9

# Percentage inhibition β-D-Glucuronidase Bovine Liver lookup, item CC1(C)O[C@H]2O[C@H]3[C@@H]([C@H]2O1)N(Cc1cccc(B2OC(C)(C)C(C)(C)O2)c1)C[C@H]3O [meta 2]
9.9

Percentage inhibition β-D-Glucuronidase Bovine Liver lookup needed for OC[C@H](O)[C@@H]1[C@H](O)[C@H](O)CN1Cc1cccc(B(O)O)c1 [meta 4] , thanks.
−2.7

Value lookup for Percentage inhibition β-D-Glucuronidase Bovine Liver; key = N[C@@H](Cc1ccc(B(O)O)cc1)C(=O)O [^10B-BPA, reference compound]
−1
